system: HEK-293T; assay: Incucyte cell viability with HEK293T; assay type: toxicity, cell-based; details: human, 6 h, 10 µM, compound concentration 10 uM, replicate number 1; further: unitless GR value; below 1 slowed growth and below 0 cell loss
Assay Readout: Growth Rate
Just the number, please.

Completed entries (count: 4):
Molecule	Number
CCCNc1ccc2ncc(-c3ccncc3)n2n1	-0.19
CN1CCC(F)(Cn2cnc(-c3ccc(F)cn3)c2-c2ccnc3[nH]ccc23)CC1	0.99
CCc1ncnc(N2CCN(C(C)=O)CC2)c1C#Cc1ccc(N)nc1.Cl.Cl	-0.05
N#Cc1cccc(-c2nc(-c3cccnc3)no2)c1	0.4

Moving on to another molecule below.
What value of Growth Rate has been recorded for this entry: CC(=O)c1c(C)c2cnc(Nc3ccc(N4CCN(CCCCNC(=O)COc5cccc6c5C(=O)N(C5CCC(=O)NC5=O)C6=O)CC4)cn3)nc2n(C2CCCC2)c1=O (stereo not given)
0.75
